- Study System: Substance-P receptor (Oryctolagus cuniculus)
- Assay Summary: Tested for antagonist activity against NK1 receptor in rabbit vena cava by using substance P (SP) as agonist
- Measurement Parameters: read-out: pA2 (converted)
Outcome Measure: Kb
Answers without a unit are incomplete; give the number and then its unit.

>  <Smiles Text>
CN(Cc1ccccc1)C(=O)[C@H](Cc1ccccc1)NC(=O)[C@@H](Cc1cn(C(=O)OC(C)(C)C)c2ccccc12)NC(=O)C[C@@H]1NC(=O)[C@@H]2C3CCC(CC3)N2C1=O

>  <Recorded Result>
126 nM

$$$$
>  <Smiles Text>
CCCCCCCC(=O)n1cc(C[C@@H](NC(=O)C[C@@H]2NC(=O)[C@@H]3C4CCC(CC4)N3C2=O)C(=O)N[C@@H](Cc2ccccc2)C(=O)N(C)Cc2ccccc2)c2ccccc21

>  <Recorded Result>
12600 nM

$$$$

Next up:
**Query** Fill in: Kb of `COC(=O)n1cc(C[C@@H](NC(=O)C[C@@H]2NC(=O)[C@@H]3C4CCC(CC4)N3C2=O)C(=O)N[C@@H](Cc2ccccc2)C(=O)N(C)Cc2ccccc2)c2ccccc21` is ___
**Result** 100 nM

###

- Study System: Neuromedin-K receptor (Rattus norvegicus)
- Sequence (P16177 whole entry): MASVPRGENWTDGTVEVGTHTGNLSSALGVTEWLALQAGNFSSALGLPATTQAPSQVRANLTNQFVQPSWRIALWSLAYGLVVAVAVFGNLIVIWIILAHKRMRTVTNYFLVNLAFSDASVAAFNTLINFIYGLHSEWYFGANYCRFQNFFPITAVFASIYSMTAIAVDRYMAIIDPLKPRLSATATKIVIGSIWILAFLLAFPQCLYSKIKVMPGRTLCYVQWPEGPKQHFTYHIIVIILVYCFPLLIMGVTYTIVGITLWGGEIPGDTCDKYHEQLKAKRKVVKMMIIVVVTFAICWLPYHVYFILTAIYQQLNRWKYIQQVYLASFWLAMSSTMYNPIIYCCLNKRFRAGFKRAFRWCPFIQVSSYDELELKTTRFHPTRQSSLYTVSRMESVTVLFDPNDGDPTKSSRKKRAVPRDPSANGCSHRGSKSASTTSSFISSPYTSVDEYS
- Assay Summary: Tested for antagonist activity against NK-3 receptor in rat portal vein by using Neurokinin B as agonist
- Assay type: functional
- Measurement Parameters: read-out: pA2 (converted)
Peptide text beside a SMILES is read from it.
# log10 Kb annotations
Transform log10 | Measure Kb | Unit nM

Here are 4 compounds together with their reported answers.
>  <Compound>
CN(Cc1ccccc1)C(=O)[C@H](Cc1ccccc1)NC(=O)[C@@H](Cc1cn(C(=O)OCCCCCCN)c2ccccc12)NC(=O)C[C@@H]1NC(=O)[C@@H]2C3CCC(CC3)N2C1=O

>  <log10 Kb>
4.00

$$$$
>  <Compound>
CN(Cc1ccccc1)C(=O)[C@H](Cc1ccccc1)NC(=O)[C@@H](Cc1cn(C(=O)CCC(=O)O)c2ccccc12)NC(=O)C[C@@H]1NC(=O)[C@@H]2C3CCC(CC3)N2C1=O

>  <log10 Kb>
4.10

$$$$
>  <Compound>
CC(C)C[C@H](NC(=O)[C@H](CC(C)C)NC(=O)[C@@H](Cc1c[nH]c2ccccc12)NC(=O)[C@H](Cc1ccccc1)NC(=O)[C@@H](Cc1c[nH]c2ccccc12)NC(=O)[C@H](CCC(N)=O)NC(=O)[C@H](CCC(N)=O)NC(=O)[C@@H]1CCCN1C(=O)[C@H](CCCCN)NC(=O)[C@@H]1CCCN1C(=O)[C@H](N)CCCN=C(N)N)C(N)=O (HELM PEPTIDE1{[dR].P.K.P.Q.Q.[dW].F.[dW].L.L.[am]}$$$$V2.0)

>  <log10 Kb>
2.80

$$$$
>  <Compound>
CCCCCCCC(=O)n1cc(C[C@@H](NC(=O)C[C@@H]2NC(=O)[C@@H]3C4CCC(CC4)N3C2=O)C(=O)N[C@@H](Cc2ccccc2)C(=O)N(C)Cc2ccccc2)c2ccccc21

>  <log10 Kb>
4.10

$$$$

**Query** Fill in: log10 Kb of `CN(Cc1ccccc1)C(=O)[C@H](Cc1ccccc1)NC(=O)[C@@H](Cc1cn(C)c2ccccc12)NC(=O)C[C@@H]1NC(=O)[C@@H]2C3CCC(CC3)N2C1=O` is ___
**Result** 3.90

**Query** Fill in: log10 Kb of `CN(Cc1ccccc1)C(=O)[C@H](Cc1ccccc1)NC(=O)[C@@H](Cc1c[nH]c2ccccc12)NC(=O)C[C@@H]1NC(=O)[C@@H]2C3CCC(CC3)N2C1=O` is ___
**Result** 3.20

**Query** Fill in: log10 Kb of `CN(Cc1ccccc1)C(=O)[C@H](Cc1ccccc1)NC(=O)[C@@H](Cc1cn(C(=O)OC(C)(C)C)c2ccccc12)NC(=O)C[C@@H]1NC(=O)[C@@H]2C3CCC(CC3)N2C1=O` is ___
**Result** 3.10

**Query** Fill in: log10 Kb of `CN(Cc1ccccc1)C(=O)[C@H](Cc1ccccc1)NC(=O)[C@@H](Cc1cn(C(=O)OCc2ccccc2)c2ccccc12)NC(=O)C[C@@H]1NC(=O)[C@@H]2C3CCC(CC3)N2C1=O` is ___
**Result** 3.20

**Query** Fill in: log10 Kb of CC(=O)N[C@H](C(=O)N[C@H](Cc1cn(C=O)c2ccccc12)C(=O)N[C@@H](Cc1ccccc1)C(=O)N(C)Cc1ccccc1)C(C)O (stereo not given in full) is ___
**Result** 3.20

**Query** Fill in: log10 Kb of `COC(=O)n1cc(C[C@@H](NC(=O)C[C@@H]2NC(=O)[C@@H]3C4CCC(CC4)N3C2=O)C(=O)N[C@@H](Cc2ccccc2)C(=O)N(C)Cc2ccccc2)c2ccccc21` is ___
**Result** 2.20

###

# pIC50 annotations
- Study System: Substance-K receptor (Homo sapiens, UniProt P21452)
- Sequence (P21452 whole entry): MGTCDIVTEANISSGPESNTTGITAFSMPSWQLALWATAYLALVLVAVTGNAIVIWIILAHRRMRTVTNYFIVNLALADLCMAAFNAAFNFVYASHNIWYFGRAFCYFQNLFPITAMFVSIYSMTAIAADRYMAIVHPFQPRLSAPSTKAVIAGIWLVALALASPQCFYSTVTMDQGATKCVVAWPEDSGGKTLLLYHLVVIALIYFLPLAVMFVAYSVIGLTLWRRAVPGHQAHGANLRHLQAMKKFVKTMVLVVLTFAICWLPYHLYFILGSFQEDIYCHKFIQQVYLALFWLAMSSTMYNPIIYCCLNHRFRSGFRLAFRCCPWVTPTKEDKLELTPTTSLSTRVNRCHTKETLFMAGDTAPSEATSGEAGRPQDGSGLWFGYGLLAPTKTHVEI
- Assay Summary: Tested for binding affinity against human NK-2 receptor transfected on CHO cells using [125I]-His] NKA as radioligand
- Format: cell-based
pIC50 is a log-scale quantity: -log10 of the concentration expressed in molar.

Here are 3 compounds together with their reported answers.
>  <Compound>
CN(Cc1ccccc1)C(=O)[C@H](Cc1ccccc1)NC(=O)[C@@H](Cc1cn(C=O)c2ccccc12)NC(=O)C[C@@H]1NC(=O)[C@@H]2C3CCC(CC3)N2C1=O

>  <Study System>
Substance-K receptor (Homo sapiens, UniProt P21452)

>  <Outcome Measure>
pIC50

>  <Recorded Result>
7.77

$$$$
>  <Compound>
CN(Cc1ccccc1)C(=O)[C@H](Cc1ccccc1)NC(=O)[C@@H](Cc1cn(C)c2ccccc12)NC(=O)C[C@@H]1NC(=O)[C@@H]2C3CCC(CC3)N2C1=O

>  <Study System>
Substance-K receptor (Homo sapiens, UniProt P21452)

>  <Outcome Measure>
pIC50

>  <Recorded Result>
7.10

$$$$
>  <Compound>
CC(=O)N[C@H](C(=O)N[C@H](Cc1cn(C=O)c2ccccc12)C(=O)N[C@@H](Cc1ccccc1)C(=O)N(C)Cc1ccccc1)C(C)O (some centres undefined)

>  <Study System>
Substance-K receptor (Homo sapiens, UniProt P21452)

>  <Outcome Measure>
pIC50

>  <Recorded Result>
7.00

$$$$

**Query** Fill in: pIC50 of `CN(Cc1ccccc1)C(=O)[C@H](Cc1ccccc1)NC(=O)[C@@H](Cc1c[nH]c2ccccc12)NC(=O)C[C@@H]1NC(=O)[C@@H]2C3CCC(CC3)N2C1=O` is ___
**Result** 7.19

###

- Study System: Substance-P receptor (Rattus norvegicus)
- Sequence (P14600 whole entry): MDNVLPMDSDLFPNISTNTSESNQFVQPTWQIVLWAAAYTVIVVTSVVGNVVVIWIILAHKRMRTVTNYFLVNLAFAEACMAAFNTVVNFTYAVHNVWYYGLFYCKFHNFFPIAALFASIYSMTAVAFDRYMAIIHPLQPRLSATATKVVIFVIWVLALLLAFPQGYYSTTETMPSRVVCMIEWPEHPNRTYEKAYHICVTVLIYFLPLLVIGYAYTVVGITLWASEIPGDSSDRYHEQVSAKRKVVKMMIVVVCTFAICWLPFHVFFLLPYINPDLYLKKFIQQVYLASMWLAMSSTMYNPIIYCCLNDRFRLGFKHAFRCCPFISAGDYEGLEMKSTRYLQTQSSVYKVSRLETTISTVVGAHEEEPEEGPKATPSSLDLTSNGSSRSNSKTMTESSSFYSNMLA
- Assay Summary: Tested for binding affinity against rat NK-1 receptor
Outcome Measure: pIC50
pIC50 is a log-scale quantity: -log10 of the concentration expressed in molar.

**Query** Fill in: pIC50 of `CN(Cc1ccccc1)C(=O)[C@H](Cc1ccccc1)NC(=O)[C@@H](Cc1cn(C(=O)CCC(=O)O)c2ccccc12)NC(=O)C[C@@H]1NC(=O)[C@@H]2C3CCC(CC3)N2C1=O` is ___
**Result** 4.84

**Query** Fill in: pIC50 of `CN(Cc1ccccc1)C(=O)[C@H](Cc1ccccc1)NC(=O)[C@@H](Cc1cn(C(=O)OCCCCCCN)c2ccccc12)NC(=O)C[C@@H]1NC(=O)[C@@H]2C3CCC(CC3)N2C1=O` is ___
**Result** 5.50

###

# log10 Kb annotations
- Study System: Substance-K receptor (Oryctolagus cuniculus, UniProt P79218)
- Sequence (P79218 whole entry): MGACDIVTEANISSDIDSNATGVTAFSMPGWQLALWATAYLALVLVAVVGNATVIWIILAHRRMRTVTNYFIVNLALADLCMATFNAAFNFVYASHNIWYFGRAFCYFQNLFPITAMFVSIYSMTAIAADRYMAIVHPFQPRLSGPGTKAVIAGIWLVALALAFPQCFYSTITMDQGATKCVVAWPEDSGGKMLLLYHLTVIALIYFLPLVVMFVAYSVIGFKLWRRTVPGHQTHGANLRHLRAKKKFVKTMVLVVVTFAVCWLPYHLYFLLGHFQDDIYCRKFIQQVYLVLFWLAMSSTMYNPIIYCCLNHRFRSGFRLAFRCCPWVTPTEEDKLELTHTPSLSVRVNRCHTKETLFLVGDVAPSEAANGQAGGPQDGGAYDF
- Assay Summary: Tested for antagonist activity against NK-2 receptor in rabbit pulmonary artery by using Neurokinin A as agonist
- Assay type: functional
- Measurement Parameters: read-out: pA2 (converted)
Transform log10 | Measure Kb | Unit µM

>  <Smiles Text>
CN(Cc1ccccc1)C(=O)[C@H](Cc1ccccc1)NC(=O)[C@@H](Cc1cn(C)c2ccccc12)NC(=O)C[C@@H]1NC(=O)[C@@H]2C3CCC(CC3)N2C1=O

>  <Outcome Measure>
log10 Kb

>  <Recorded Result>
1.00

$$$$

**Query** Requested read-out log10 Kb, target or system Substance-K receptor (Oryctolagus cuniculus, UniProt P79218), entry `CN(Cc1ccccc1)C(=O)[C@H](Cc1ccccc1)NC(=O)[C@@H](Cc1cn(C=O)c2ccccc12)NC(=O)C[C@@H]1NC(=O)[C@@H]2C3CCC(CC3)N2C1=O`
**Result** 1.10

**Query** Requested read-out log10 Kb, target or system Substance-K receptor (Oryctolagus cuniculus, UniProt P79218), entry `CN(Cc1ccccc1)C(=O)[C@H](Cc1ccccc1)NC(=O)[C@@H](Cc1c[nH]c2ccccc12)NC(=O)C[C@@H]1NC(=O)[C@@H]2C3CCC(CC3)N2C1=O`
**Result** 0.30
